# TARGET_DESC: various mutants of kinase EGFR (BaF3 cell lines stably transfected with kinase) (Homo sapiens, UniProt P00533, L858R/T790M)
# Construct: expressed in transfected cells; host or cells: BaF3
# Sequence (P00533 25-1210 T790M/L858R): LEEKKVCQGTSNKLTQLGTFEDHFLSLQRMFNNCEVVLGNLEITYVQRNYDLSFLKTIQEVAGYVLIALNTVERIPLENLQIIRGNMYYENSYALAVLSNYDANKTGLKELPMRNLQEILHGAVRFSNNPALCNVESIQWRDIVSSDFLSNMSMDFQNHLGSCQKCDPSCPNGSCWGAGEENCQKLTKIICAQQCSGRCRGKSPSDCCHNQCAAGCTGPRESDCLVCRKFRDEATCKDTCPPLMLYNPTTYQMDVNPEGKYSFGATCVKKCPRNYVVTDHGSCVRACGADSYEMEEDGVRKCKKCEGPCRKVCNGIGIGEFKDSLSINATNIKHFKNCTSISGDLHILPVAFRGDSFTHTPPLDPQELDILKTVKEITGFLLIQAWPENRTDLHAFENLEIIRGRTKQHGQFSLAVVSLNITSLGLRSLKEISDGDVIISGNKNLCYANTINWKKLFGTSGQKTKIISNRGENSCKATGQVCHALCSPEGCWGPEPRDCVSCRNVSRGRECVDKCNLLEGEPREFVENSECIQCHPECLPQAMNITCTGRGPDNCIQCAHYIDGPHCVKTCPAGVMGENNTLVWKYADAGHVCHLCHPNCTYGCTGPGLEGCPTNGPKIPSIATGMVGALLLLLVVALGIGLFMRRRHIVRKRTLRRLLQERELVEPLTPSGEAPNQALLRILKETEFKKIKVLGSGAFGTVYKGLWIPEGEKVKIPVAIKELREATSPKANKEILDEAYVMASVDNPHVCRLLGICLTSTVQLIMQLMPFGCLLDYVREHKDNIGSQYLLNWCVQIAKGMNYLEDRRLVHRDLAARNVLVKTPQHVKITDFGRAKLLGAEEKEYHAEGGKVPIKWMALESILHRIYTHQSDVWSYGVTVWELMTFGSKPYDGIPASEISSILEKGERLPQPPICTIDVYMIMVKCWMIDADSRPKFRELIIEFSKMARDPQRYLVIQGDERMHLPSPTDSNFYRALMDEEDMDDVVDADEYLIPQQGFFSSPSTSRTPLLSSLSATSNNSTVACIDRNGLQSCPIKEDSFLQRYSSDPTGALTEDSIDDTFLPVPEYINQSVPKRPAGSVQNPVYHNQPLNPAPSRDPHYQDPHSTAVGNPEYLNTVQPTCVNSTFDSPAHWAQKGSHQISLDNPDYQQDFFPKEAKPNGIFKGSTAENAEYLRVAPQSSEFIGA
# METHOD: Growth inhibitory activity of compounds on BaF3 cell lines stably transfected with kinase (MTS, 48 h)
# Type: cell-based
# TEST_CONTEXT: BaF3 cells stably transfected with EGFR L858R/T790M, read-out: IC50, growth inhibition, L858R/T790M
pIC50: −log10 of the molar value.
ENDPOINT_NAME: pIC50

CCc1cc(Nc2ncc(F)c(Nc3ccc4nccnc4c3N(C)S(C)(=O)=O)n2)c(OC(F)(F)F)cc1N1CCC(N2CCN(C)CC2)CC1 ... 6.30 to 7.30
CCN(c1c(Nc2nc(Nc3cc(C)c(N4CCC(N5CCN(C)CC5)CC4)cc3OC)ncc2Br)ccc2nccnc12)S(C)(=O)=O ... ≥ 7.30
CN1CCc2cc(F)c(Nc3ncc(Br)c(Nc4ccc5nccnc5c4N(C)S(C)(=O)=O)n3)cc2C1 ... 6.30 to 7.30
COc1cc(N2CCC(N3CCN(C)CC3)CC2)ccc1Nc1ncc(Cl)c(Nc2ccc3nccnc3c2N(C)S(C)(=O)=O)n1 ... ≥ 7.30
COc1cc(N2CCC(N3CCN(C)CC3)CC2)c(C)cc1Nc1ncc(Cl)c(Nc2ccc3nccnc3c2N(C2CC2)S(C)(=O)=O)n1 ... ≥ 7.30
CCc1cc(Nc2ncc(Br)c(Nc3ccc4nccnc4c3N(C3CC3)S(C)(=O)=O)n2)c(OC)cc1N1CCC(N(C)C)CC1 ... ≥ 7.30

Value of pIC50 reported for the compound CCc1cc(Nc2ncc(Br)c(Nc3ccc4nccnc4c3N(C3CC3)S(C)(=O)=O)n2)c(OC(F)(F)F)cc1N1CCC(N2CCN(C)CC2)CC1 is 6.30 to 7.30

For reference, reported pIC50 for COc1cc(N2CCC(N3CCN(C)CC3)CC2)ccc1Nc1ncc(Br)c(Nc2ccc3nccnc3c2N(C)S(=O)(=O)C(F)(F)F)n1 stands at 6.30 to 7.30

The recorded pIC50 for entry COc1cc(N2CCC(N(C)C)C2)c(C)cc1Nc1ncc([N+](=O)[O-])c(Nc2ccc3nccnc3c2N(C)S(C)(=O)=O)n1 (stereo not shown) equals 6.30 to 7.30

The reported pIC50 of the compound COc1cc(N2CCC(N3CCCC3)CC2)ccc1Nc1ncc(Br)c(Nc2ccc3nccnc3c2N(C)S(C)(=O)=O)n1 was ≥ 7.30

Sample COc1cc(C(=O)N2CCC(N3CCN(C)CC3)CC2)ccc1Nc1ncc(Br)c(Nc2ccc3nccnc3c2N(C)S(C)(=O)=O)n1 ; pIC50 observed: 6.30 to 7.30

Value of measured pIC50 for the entry CCc1cc(Nc2ncc([N+](=O)[O-])c(Nc3ccc4nccnc4c3N(C)S(C)(=O)=O)n2)c(OC)cc1N1CCC(N(C)C)C1 (stereo not shown) : 6.30 to 7.30
